This listing pairs binders with measured pKd.
Target: T1, recombinant human activated Factor VII (FVIIa) (human, UniProt P08709 61-212; P08709 213-466, ten glutamate residues of the Gla domain may be gamma-carboxylated)
T1 construct: chains tethered by a disulfide bond; also called Factor VIIa; rFVIIa
T1 sequence 1: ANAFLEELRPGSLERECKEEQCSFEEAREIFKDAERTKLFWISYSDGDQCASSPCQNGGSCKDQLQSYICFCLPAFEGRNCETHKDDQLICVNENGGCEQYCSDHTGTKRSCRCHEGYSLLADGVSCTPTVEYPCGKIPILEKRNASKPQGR
T1 sequence 2: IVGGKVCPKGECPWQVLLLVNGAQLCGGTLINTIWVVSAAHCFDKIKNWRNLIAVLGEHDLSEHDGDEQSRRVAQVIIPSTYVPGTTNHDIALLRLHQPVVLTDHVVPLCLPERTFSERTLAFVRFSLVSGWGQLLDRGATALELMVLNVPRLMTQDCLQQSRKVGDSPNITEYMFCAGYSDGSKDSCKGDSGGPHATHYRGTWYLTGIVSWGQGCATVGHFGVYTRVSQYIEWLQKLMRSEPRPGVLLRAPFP
Experiment: BLI (Fortebio)
Friendly reminder that pKd comes from taking -log10 of the concentration in mol/L.

Known pKd results, listed for orientation:
VH SEQ ID NO 538 / VL SEQ ID NO 486 (antibody, IgG4, V domains shown, humanized 11F2; IgG4 S228P/kappa) VH: QVQLQESGPGLVEPSQTLSLTCTVSGYSITSDSAWSWIRQPPGKKLEWIGYIQYSGSTNYNPSLKSRVTISRDTSKNQFSLKLSSVTAADTAVYYCARSVNYYGNSFAVGYWGQGTLVTVSS VL: EIVLTQSPATLSLSPGERATLSCRASQGVSDYLHWYQQKPGQAPRLLIKYASQPATGIPARFSGSGSGTDFTLTISSLEPEDFGVYYCQNGHSFPLTFGQGTKLEIK: 9.00
VH SEQ ID NO 538 / VL SEQ ID NO 366 (antibody, IgG4, V domains shown, humanized 11F2; IgG4 S228P/kappa) VH: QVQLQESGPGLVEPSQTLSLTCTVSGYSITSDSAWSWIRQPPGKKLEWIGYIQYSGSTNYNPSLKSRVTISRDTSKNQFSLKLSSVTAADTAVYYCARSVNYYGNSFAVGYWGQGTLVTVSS VL: EIVLTQSPATLSLSPGERATLSCRASQGLSDYLAWYQQKPGEAPRLLIKYASQPATGIPARFSGSGSGTDFTLTISSLEPEDFAVYYCQNGHSFPLTFGQGTKLEIK: 8.21

In the following, a different binder is considered.
Reported pKd of VH SEQ ID NO 570 / VL SEQ ID NO 470 (antibody, IgG4, V domains shown, humanized 11F2; IgG4 S228P/kappa) VH: QVQLQESGPGLVKPSDTLSLTCAVSGYSISSDSAWSWIRQPPGKGLEWIGYIQYSGSTNYNPSLKSRVTMSRDTSKNQFSLKLSSVTAADTAVYYCARSVNYYGNSFAVGPWGQGTLVTVSS VL: EIVLTQSPATLSLSPGERATLSCRASQGVSDYLHWYQQKPGQAPRLLIKYASQPATGIPARFSGSGSGTDFTLTISSLEPEDFAVYYCQNGHSFPLTFGQGTKLEIK : 8.96

Each recorded value in this set is attributed to patent US20220064329A1.
